target: Tyrosine-protein kinase JAK2 (Homo sapiens, UniProt O60674)
Sequence (O60674 whole entry): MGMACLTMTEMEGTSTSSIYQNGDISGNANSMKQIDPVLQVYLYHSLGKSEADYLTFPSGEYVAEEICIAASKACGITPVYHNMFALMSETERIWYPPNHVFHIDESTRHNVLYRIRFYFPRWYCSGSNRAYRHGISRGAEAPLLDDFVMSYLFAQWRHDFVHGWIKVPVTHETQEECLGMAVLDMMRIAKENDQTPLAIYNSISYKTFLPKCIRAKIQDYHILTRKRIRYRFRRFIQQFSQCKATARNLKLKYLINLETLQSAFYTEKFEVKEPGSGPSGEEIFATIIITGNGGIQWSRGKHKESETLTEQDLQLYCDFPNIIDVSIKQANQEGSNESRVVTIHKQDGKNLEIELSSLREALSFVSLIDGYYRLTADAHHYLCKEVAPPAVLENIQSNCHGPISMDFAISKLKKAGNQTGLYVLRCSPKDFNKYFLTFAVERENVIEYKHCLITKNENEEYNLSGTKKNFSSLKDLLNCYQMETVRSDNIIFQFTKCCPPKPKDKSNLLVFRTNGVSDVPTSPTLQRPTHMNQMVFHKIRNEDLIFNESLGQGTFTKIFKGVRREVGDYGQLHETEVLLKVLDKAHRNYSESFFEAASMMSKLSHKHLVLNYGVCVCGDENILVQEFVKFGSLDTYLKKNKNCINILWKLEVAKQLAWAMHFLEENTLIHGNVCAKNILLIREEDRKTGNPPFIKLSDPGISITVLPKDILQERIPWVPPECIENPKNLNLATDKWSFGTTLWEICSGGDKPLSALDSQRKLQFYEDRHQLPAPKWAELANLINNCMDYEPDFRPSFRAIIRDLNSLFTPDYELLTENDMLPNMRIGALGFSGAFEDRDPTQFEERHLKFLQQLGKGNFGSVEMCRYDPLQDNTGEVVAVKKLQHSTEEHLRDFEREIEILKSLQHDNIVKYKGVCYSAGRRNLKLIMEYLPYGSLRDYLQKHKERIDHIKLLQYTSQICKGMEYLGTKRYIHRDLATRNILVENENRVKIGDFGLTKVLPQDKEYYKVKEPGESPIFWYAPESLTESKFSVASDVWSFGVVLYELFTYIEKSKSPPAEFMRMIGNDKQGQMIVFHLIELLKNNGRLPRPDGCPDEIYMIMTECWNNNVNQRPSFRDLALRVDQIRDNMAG
reported_metric: pIC50
pIC50 here is simply -log10 of the concentration when that concentration is written in mol/L.

Looking for the measured pIC50 of CCN1CCN(Cc2cc(NC(=O)Nc3ccc(C)c(Oc4ccc5nc(NC(=O)C6CC6)sc5n4)c3)cc(C(F)(F)F)c2)CC1 [US12415816, Compound I-18] , can you help?
5.84
